// data source = patent US10023610B2

Experimental Target: Aβ1-42 (Homo sapiens)
Construct: Samples of Aβ1-42 peptide (5 μM) alone or mixed with 5 or 25 μM of each ligand
Sequence (P05067 672-713 limits assumed): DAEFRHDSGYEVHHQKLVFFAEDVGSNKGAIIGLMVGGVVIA
Test Description: Electron microscopy of fibril formation from Aβ1-42 in the presence of ligands
Format: biochemical
Protocol Conditions: Aβ1-42 5 μM with 5 or 25 μM ligand, 37° C., 9 hours
Reported Metric: fibril formation by Aβ1-42 (electron microscopy)

{"Smiles Representation": "CCCCCCCCCC(=O)NCCNC[C@H](N)C(=O)N[C@H](CCN1C(=O)c2cccc3c(N(C)C)ccc(c23)C1=O)C(=O)NCC[C@@H](NC(=O)CCCC(=O)O)C(=O)O", "Measured": "less fibrils"}
{"Smiles Representation": "CCCCCCCC[C@H](N)CNCC[C@H](N)C(=O)N[C@H](CCN1C(=O)c2cccc3c(N(C)C)ccc(c23)C1=O)C(=O)NCC[C@@H](NC(=O)CCCC(=O)O)C(=O)O", "Measured": "less fibrils"}
{"Smiles Representation": "NC(=O)CCCCCCCCCCC(=O)NCCNC[C@H](N)C(=O)N[C@H](Cc1c[nH]c2ccccc12)C(=O)NCC[C@@H](NC(=O)CCCC(=O)O)C(=O)O", "Measured": "less fibrils"}
